- system-tested: T1, HUMAN B7H3 (Biacore analyte) (human, UniProt Q5ZPR3 29-461, limits assumed)
- T1 construct: also called hB7H3
- T1 sequence (looked up): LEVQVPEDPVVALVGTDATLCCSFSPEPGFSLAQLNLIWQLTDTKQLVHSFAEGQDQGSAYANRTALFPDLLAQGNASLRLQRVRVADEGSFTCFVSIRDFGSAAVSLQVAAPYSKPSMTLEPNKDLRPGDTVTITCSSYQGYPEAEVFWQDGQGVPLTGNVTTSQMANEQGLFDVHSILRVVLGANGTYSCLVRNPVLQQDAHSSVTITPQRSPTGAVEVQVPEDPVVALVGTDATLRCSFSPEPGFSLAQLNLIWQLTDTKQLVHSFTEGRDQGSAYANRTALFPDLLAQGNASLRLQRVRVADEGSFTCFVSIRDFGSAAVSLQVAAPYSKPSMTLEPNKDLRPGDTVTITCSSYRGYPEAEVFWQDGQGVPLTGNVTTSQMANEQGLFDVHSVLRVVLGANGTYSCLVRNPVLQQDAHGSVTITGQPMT
- experiment-description: SPR, Biacore 8K, antibody captured, B7H3 as analyte, 1:1 binding
Give kon for every item shown.
// units = M⁻¹ s⁻¹; emit number, no label

Prompt: I have this binder here, 20-A2-D10-G8 (human IgG1 chimeric antibody) (antibody, V domains shown, human IgG1 chimeric antibody of the mouse clone) VH: QVQLQQSGPELVRPGVSVKISCKGSGYTFTDYTMHWVKESHAQSLEWIGVISTYYGNTNYNQNFKGKATLTVDKSSSTAYMELAGLTSEDSAIYYCARASYGSGYGPYYWYFDVWGAGTTVTVSS VL: DIQMTQSPASLFASVGETVTITCRASEKIYSYLAWYFQKQGKSPQFLVYNANALAEGVPSRFSGSGSGTQFSLKIKSLQPEDFGTYYCQHHYGSPVTFGAGSKLELK , and I need its recorded kon.
Response: 508000

Prompt: Look up kon for this binder: 18-F9-D8-G7 (human IgG1 chimeric antibody) (antibody, V domains shown, human IgG1 chimeric antibody of the mouse clone) VH: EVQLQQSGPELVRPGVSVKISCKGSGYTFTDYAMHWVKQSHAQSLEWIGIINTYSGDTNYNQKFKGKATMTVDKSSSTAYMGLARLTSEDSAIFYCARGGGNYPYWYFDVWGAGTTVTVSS VL: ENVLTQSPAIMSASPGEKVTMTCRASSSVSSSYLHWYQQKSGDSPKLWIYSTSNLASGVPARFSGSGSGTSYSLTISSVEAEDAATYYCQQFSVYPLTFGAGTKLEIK
Response: 489000

Prompt: Query: kon; subject: 27-F8-E10-E11 (human IgG1 chimeric antibody) (antibody, V domains shown, human IgG1 chimeric antibody of the mouse clone) VH: EVQLQQSGPELVKPGASVKISCKTSGYTFTEYAMHWVKQSHGKILEWIGGINPNIGGTTYNQKFKDKATLTVDKSSSTASMELRSLTSEDSAVYYCARFLVPSTEGFTYWGQGTLVTVSA VL: QIVLTQSPAIMSASPGEKVTMTCSASSSVSYMHWYQQKSGTSPKRWIYDTSRVASGVPARFSGSGSGTSYSLTISSMEAEDAATYYCQQWSSNPLTFGAGTKLELK
Response: 278000

Prompt: Any idea what its kon is? The binder is 20-C5-D7-D3 (human IgG1 chimeric antibody) (antibody, V domains shown, human IgG1 chimeric antibody of the mouse clone) VH: EVQLVESGGDLVKPGGSLKLSCAASGFTFRSYGMSWVRQTPDKRLEWVATISGGGNYTYYPDSVKGRFTISRDNAKNTLYLQMSSLKSEDTAMYYCARHEGLPLDYWGQGTTLTVSS VL: DIQMTQSPASLSASVGETVTITCRASENIYSYLAWYQQKQGKSPQLLVYNAKTLAEGVPSRFSGSGSGTQFSLKINSLQPEDFGNFYCQHHYGTPTWTFGGGTKLEIK
Response: 645000

Prompt: Could you share which kon value was measured for MGC018 (antibody, V domains shown) VH: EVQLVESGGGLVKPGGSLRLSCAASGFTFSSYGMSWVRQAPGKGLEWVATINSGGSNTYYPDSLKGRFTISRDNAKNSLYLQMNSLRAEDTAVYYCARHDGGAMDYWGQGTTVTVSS VL: DIQMTQSPSSLSASVGDRVTITCRASESIYSYLAWYQQKPGKAPKLLVYNTKTLPEGVPSRFSGSGSGTDFTLTISSLQPEDFATYYCQHHYGTPPWTFGQGTRLEIKR ?
Response: 889000
